molecular target: UniProt P29477; test: Inhibition of iNOS-mediated NO production in LPS-stimulated mouse RAW264.7 cells after 24 hrs by Griess reagent method relative to control; type: cell-based
Sequence (P29477 whole entry): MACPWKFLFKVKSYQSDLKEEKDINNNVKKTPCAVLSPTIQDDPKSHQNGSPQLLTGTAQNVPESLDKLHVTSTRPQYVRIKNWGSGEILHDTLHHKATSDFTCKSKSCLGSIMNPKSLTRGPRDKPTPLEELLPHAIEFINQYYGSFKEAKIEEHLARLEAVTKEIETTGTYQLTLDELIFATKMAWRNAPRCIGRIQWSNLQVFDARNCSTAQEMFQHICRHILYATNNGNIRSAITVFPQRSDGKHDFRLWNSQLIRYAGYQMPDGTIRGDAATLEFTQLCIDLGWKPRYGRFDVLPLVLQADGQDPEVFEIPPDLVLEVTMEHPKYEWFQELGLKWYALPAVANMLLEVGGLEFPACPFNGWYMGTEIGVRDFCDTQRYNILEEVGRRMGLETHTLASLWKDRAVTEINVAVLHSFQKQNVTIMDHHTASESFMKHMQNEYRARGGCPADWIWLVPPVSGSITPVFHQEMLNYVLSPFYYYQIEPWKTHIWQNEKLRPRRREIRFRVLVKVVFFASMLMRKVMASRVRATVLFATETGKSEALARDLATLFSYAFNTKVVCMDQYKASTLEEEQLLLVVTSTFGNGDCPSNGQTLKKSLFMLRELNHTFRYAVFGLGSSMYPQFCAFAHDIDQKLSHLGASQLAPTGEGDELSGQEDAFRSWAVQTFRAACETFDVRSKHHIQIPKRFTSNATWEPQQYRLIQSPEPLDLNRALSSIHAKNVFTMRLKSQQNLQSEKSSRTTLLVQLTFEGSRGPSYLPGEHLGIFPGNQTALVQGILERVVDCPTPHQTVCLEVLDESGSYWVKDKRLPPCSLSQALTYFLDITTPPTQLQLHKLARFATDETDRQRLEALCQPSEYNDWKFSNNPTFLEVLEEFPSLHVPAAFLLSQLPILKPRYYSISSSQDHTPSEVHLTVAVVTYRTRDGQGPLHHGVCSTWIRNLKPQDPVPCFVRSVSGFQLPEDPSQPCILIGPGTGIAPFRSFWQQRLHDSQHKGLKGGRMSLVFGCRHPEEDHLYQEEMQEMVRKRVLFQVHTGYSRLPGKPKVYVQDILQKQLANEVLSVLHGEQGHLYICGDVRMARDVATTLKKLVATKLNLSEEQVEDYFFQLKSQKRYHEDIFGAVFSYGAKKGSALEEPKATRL
Answer each item with its documented Emax.
# unit: % | format: bare number

query: Please report the recorded Emax for N=C(NCCC[C@H](N)C(=O)O)N[N+](=O)[O-] [NITROARGININE] .
result: 41.2

query: Report Emax for COc1cc(O)c2c(c1)O[C@H](c1ccc(O)cc1)CC2=O [SAKURANETIN] please.
result: 85.2

query: Query: Emax; subject: COc1cc2c([nH]c3ccc(O)cc32)c(Cc2ccc(O)cc2)n1 [DAIBUCARBOLINE A]
result: 96.1

query: Record request: Emax value, item COc1cc(O)c2c(=O)c(-c3ccc(O)cc3)coc2c1 [PRUNETIN]
result: 94.8

query: Which measured Emax value corresponds to N=C(N)NN [PIMAGEDINE] ?
result: 83.5
